Data credit: PubChem BioAssay

Biological target: Short transient receptor potential channel 4 (Mus musculus)
Experiment: inhibitors of mouse TRPC4 channel, confirmation, cell-based, second round, Fluo4, HEK293 TRPC4beta/mu-opioid, 1 µM (AID 2637)
Settings: Fluo4 calcium flux, DAMGO, at 1 µM
Activity calls are given as the source filed them.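 How the source made its calls: active means calcium signal ratio cut to more than 3 SD under the fully stimulated control mean yet still positive, in both repeats and the primary screen; inactive means the rest.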
Outcomes: active, inactive

Molecule | Assayed Target | Cat
CN(C)C(CNC(=O)c1cnc(Cl)c(Cl)c1)c1ccccc1 (centres undefined) | Short transient receptor potential channel 4 (Mus musculus) | inactive
CN(C)C(CNC(=O)/C=C/c1cccc(Cl)c1)c1ccccc1 (centres undefined) | Short transient receptor potential channel 4 (Mus musculus) | inactive
O=C(NCCc1ccccn1)c1ccc(OC2CCN(CCc3ccccc3)CC2)cc1 | Short transient receptor potential channel 4 (Mus musculus) | inactive
Cc1sc2ncnc(NCC(C)(C)N3CCOCC3)c2c1C | Short transient receptor potential channel 4 (Mus musculus) | inactive
Cc1ccn2cc(CCNC(=O)C3CC=CCC3C(=O)O)nc2c1 (centres undefined) | Short transient receptor potential channel 4 (Mus musculus) | inactive
CCOC(=O)C1=NN(C(=O)c2ccc(C)cc2)C(O)(c2ccc(Cl)cc2)C1 (centres undefined) | Short transient receptor potential channel 4 (Mus musculus) | inactive
CN(C)C(CNC(=S)Nc1ccc(F)cc1)c1cccnc1 (centres undefined) | Short transient receptor potential channel 4 (Mus musculus) | inactive
CCOC(=O)C1(CCOc2ccccc2)CCN(Cc2ccc(NC(C)=O)cc2)CC1 | Short transient receptor potential channel 4 (Mus musculus) | inactive
Cc1onc(-c2c(F)cccc2Cl)c1C(=O)N1CCN(c2ncc(Br)cn2)CC1 | Short transient receptor potential channel 4 (Mus musculus) | inactive
CCOC(=O)C1CCCN(C(c2ccccn2)c2c(C)[nH]c3ccccc23)C1 (centres undefined) | Short transient receptor potential channel 4 (Mus musculus) | inactive
Cc1cc(OCCCn2ccnc2)ccc1[N+](=O)[O-] | Short transient receptor potential channel 4 (Mus musculus) | inactive
CC(=O)Nc1ccc(CN2CCCC(C(=O)c3cccc(C(F)(F)F)c3)C2)cc1 (centres undefined) | Short transient receptor potential channel 4 (Mus musculus) | inactive
Fc1ccc(C2CCNCC2COc2ccc3c(c2)OCO3)cc1 (centres undefined) | Short transient receptor potential channel 4 (Mus musculus) | inactive
CCN1/C(=C\c2ccc3ccccc3[n+]2CC)Sc2cc(C)ccc21 | Short transient receptor potential channel 4 (Mus musculus) | inactive
COc1ccccc1C(=O)NNC(=S)NC(=O)c1cccs1 | Short transient receptor potential channel 4 (Mus musculus) | inactive
CC(C)(C)c1ccc(C(=O)NC(=S)NNC(=O)c2cccs2)cc1 | Short transient receptor potential channel 4 (Mus musculus) | inactive
CCc1cccc(CC)c1NC(=S)NCC(c1cccnc1)N(C)C (centres undefined) | Short transient receptor potential channel 4 (Mus musculus) | inactive
Cc1c(C(=O)N(Cc2cccs2)C2CCS(=O)(=O)C2)oc2ccccc12 (centres undefined) | Short transient receptor potential channel 4 (Mus musculus) | inactive
COc1ccc(-n2cc(CNCCc3ncc(C)[nH]3)c(-c3ccccc3Cl)n2)cc1 | Short transient receptor potential channel 4 (Mus musculus) | inactive
O=c1c2cc(Br)ccc2nc(-c2cccc(C(F)(F)F)c2)n1O | Short transient receptor potential channel 4 (Mus musculus) | inactive
COc1cc(OC)c(CN2CCC(Cc3ccccc3)CC2)cc1Br | Short transient receptor potential channel 4 (Mus musculus) | inactive
COc1ccc(C(CNC(=O)c2cccc3cccnc23)N(C)C)cc1 (centres undefined) | Short transient receptor potential channel 4 (Mus musculus) | active
O=C(Nc1nnc(-c2cccs2)o1)c1cccc(C(F)(F)F)c1 | Short transient receptor potential channel 4 (Mus musculus) | inactive
CC(C)(C)C(=O)NC(=S)NNC(=O)C(c1ccccc1)c1ccccc1 | Short transient receptor potential channel 4 (Mus musculus) | inactive
Cc1cc(C)n(-c2nc(SCCN(C)C)c3c4c(sc3n2)CCCC4)n1 | Short transient receptor potential channel 4 (Mus musculus) | inactive
CC(NCCC1(Cc2ccccc2Cl)CCOC(C)(C)C1)c1cccs1 (centres undefined) | Short transient receptor potential channel 4 (Mus musculus) | inactive
CCOc1ccc2ncc(C(=O)c3ccc(OC)cc3)c(N3CCN(CC)CC3)c2c1 | Short transient receptor potential channel 4 (Mus musculus) | inactive
CC(=O)Nc1ccc(C2(c3ccc(NC(C)=O)cc3)C(=O)Nc3ccccc32)cc1 | Short transient receptor potential channel 4 (Mus musculus) | active
COc1cc(OC)cc(C(=O)N[C@H](C(=O)OCC(=O)NC(C)c2ccccc2)C(C)C)c1 (some centres undefined) | Short transient receptor potential channel 4 (Mus musculus) | inactive
CC(=O)N1CCc2cc(Br)cc(S(=O)(=O)NCCCN(C)Cc3ccccc3)c21 | Short transient receptor potential channel 4 (Mus musculus) | inactive
Cc1ccc(-n2cc(CNCC3CC(=O)N(C4CC4)C3)c(-c3cccc(C)c3)n2)cc1 (centres undefined) | Short transient receptor potential channel 4 (Mus musculus) | inactive
CCCC(=O)NC(C)C(c1cccs1)N1CCN(c2ccccc2)CC1 (centres undefined) | Short transient receptor potential channel 4 (Mus musculus) | inactive
CCCOc1ccc(C(=O)NNC(=S)NC(=O)c2ccccc2)cc1 | Short transient receptor potential channel 4 (Mus musculus) | inactive
Cc1ccccc1NC(=S)NCCc1ccccn1 | Short transient receptor potential channel 4 (Mus musculus) | inactive
CNC[C@H](CC1CCCCC1)NC[C@H](Cc1ccccc1)NCCC12CC3CC(CC(C3)C1)C2 | Short transient receptor potential channel 4 (Mus musculus) | inactive
NC(=O)C1CCCN(CC(O)COCc2ccc(Cl)cc2)C1 (centres undefined) | Short transient receptor potential channel 4 (Mus musculus) | inactive
COc1cccc(CNCc2ccccn2)c1OC | Short transient receptor potential channel 4 (Mus musculus) | inactive
CCCCC(c1nnnn1CC1CCCO1)N1CCN(c2nc3ccccc3s2)CC1 (centres undefined) | Short transient receptor potential channel 4 (Mus musculus) | inactive
Cc1cccc(C(=O)NC(=S)NNC(=O)c2ccccc2Cl)c1 | Short transient receptor potential channel 4 (Mus musculus) | inactive
CC1CC(C)(C)N(C(=O)CN2C(=O)c3ccccc3C2=O)c2ccccc21 (centres undefined) | Short transient receptor potential channel 4 (Mus musculus) | inactive
C=CCn1c(CCNC(=O)C(C)(C)C)nc2ccccc21 | Short transient receptor potential channel 4 (Mus musculus) | inactive
CCn1cc(CN2CCCC(C(=O)Nc3ccc(-c4nc5ccccc5[nH]4)cc3)C2)c(C)n1 (centres undefined) | Short transient receptor potential channel 4 (Mus musculus) | inactive
CCOC(=O)C1(CC2CC2)CCN(Cc2cn[nH]c2-c2ccccc2)CC1 | Short transient receptor potential channel 4 (Mus musculus) | active
CCN(CC)CCCOc1ccc(Cl)c(Cl)c1 | Short transient receptor potential channel 4 (Mus musculus) | inactive

---

Target: Potassium voltage-gated channel subfamily KQT member 1 (Homo sapiens)
Assay: KCNQ1 potassium channel potentiators, confirmation, FluxOR thallium flux, CHO cells, duplicates (AID 493007);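 on potentiation: 0% = buffer-only wells and 100% = R-L3 activator control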
Conditions: KCNQ1 cell line, FluxOR thallium flux fluorescence, at 10 µM; active compounds read high, % of reference activator effect, buffer zero
Active and inactive are the calls of the source.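 Rule for the calls: active = potentiation averaged over duplicate wells exceeding buffer-only control mean by more than 3 SD; inactive = the rest.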
Measured Metric: potentiation

Compound | Assayed Target | Measured Metric | Result
N#Cc1ccccc1OCCN1C(=O)c2ccccc2C1=O | Potassium voltage-gated channel subfamily KQT member 1 (Homo sapiens) | potentiation | inactive
CCOC(=O)c1c(C)[nH]sc1=S | Potassium voltage-gated channel subfamily KQT member 1 (Homo sapiens) | potentiation | 18% (active)
N#Cc1ccc(-c2nc3ccc(Br)cc3c(=O)n2O)cc1 | Potassium voltage-gated channel subfamily KQT member 1 (Homo sapiens) | potentiation | 120% (active)
Cc1ccc(C(=O)NC(=S)N(C)C2CCCCC2)cc1Br | Potassium voltage-gated channel subfamily KQT member 1 (Homo sapiens) | potentiation | 61% (active)
Cc1cccc(NC(=O)c2ccc(COc3ccccc3[N+](=O)[O-])o2)n1 | Potassium voltage-gated channel subfamily KQT member 1 (Homo sapiens) | potentiation | inactive
CC(C)(C)c1ccc(Oc2ccc(N)cn2)cc1 | Potassium voltage-gated channel subfamily KQT member 1 (Homo sapiens) | potentiation | 81.5% (active)
COc1cccc(NC(=O)NCC2CCN(Cc3ccc(F)cc3)CC2)c1 | Potassium voltage-gated channel subfamily KQT member 1 (Homo sapiens) | potentiation | inactive
COc1ccc(C2(C)CC(C)(C)Nc3ccccc32)cc1 (stereo unspecified) | Potassium voltage-gated channel subfamily KQT member 1 (Homo sapiens) | potentiation | 68.5% (active)
Cc1cccc(C(=O)NNC(=S)NC(=O)c2cccs2)c1 | Potassium voltage-gated channel subfamily KQT member 1 (Homo sapiens) | potentiation | 91% (active)
Cc1cccc(NC(=O)C2CCCN2S(=O)(=O)c2ccc(Cl)cc2)n1 (stereo unspecified) | Potassium voltage-gated channel subfamily KQT member 1 (Homo sapiens) | potentiation | inactive
Cc1ccc(-n2c(C)cc(/C=N/NC(=O)c3ccncc3)c2C)c(C)c1 | Potassium voltage-gated channel subfamily KQT member 1 (Homo sapiens) | potentiation | inactive
Oc1c(Br)cc(Br)cc1C=NCc1ccccc1 | Potassium voltage-gated channel subfamily KQT member 1 (Homo sapiens) | potentiation | 21.5% (active)
Cc1onc(-c2ccccc2)c1C(=O)NC(=S)NNC(=O)c1ccccc1O | Potassium voltage-gated channel subfamily KQT member 1 (Homo sapiens) | potentiation | 17.5% (active)
NC(=S)n1[nH]c(-c2ccc([N+](=O)[O-])cc2)c(N=Nc2cccc(Cl)c2)c1=O | Potassium voltage-gated channel subfamily KQT member 1 (Homo sapiens) | potentiation | 34.5% (active)
CCOC(=O)C1CCCN(C(=O)Cn2sc3nc(C)cc(C)c3c2=O)C1 (stereo unspecified) | Potassium voltage-gated channel subfamily KQT member 1 (Homo sapiens) | potentiation | inactive
O=[N+]([O-])c1ccc(Nc2ccc(Cl)cc2)nc1 | Potassium voltage-gated channel subfamily KQT member 1 (Homo sapiens) | potentiation | inactive
CN(C(=O)CSc1ncnc2sc(-c3ccccc3)cc12)C1CCS(=O)(=O)C1 (stereo unspecified) | Potassium voltage-gated channel subfamily KQT member 1 (Homo sapiens) | potentiation | 176% (active)
Cc1cc(NC(=O)CSc2nc(C3CC3)nc3sc(C)c(C)c23)no1 | Potassium voltage-gated channel subfamily KQT member 1 (Homo sapiens) | potentiation | 38% (active)
S=C(Nc1ccccc1)Nc1nc2ccccc2n1CCOc1ccc(Cl)cc1 | Potassium voltage-gated channel subfamily KQT member 1 (Homo sapiens) | potentiation | inactive
O=C(Nc1cccc(NC(=O)c2c(F)cccc2F)n1)c1c(F)cccc1F | Potassium voltage-gated channel subfamily KQT member 1 (Homo sapiens) | potentiation | inactive
CCCCCC/C(C)=C1/SC(=S)NC1=O | Potassium voltage-gated channel subfamily KQT member 1 (Homo sapiens) | potentiation | 264% (active)
COc1ccc(CN(C)C(=O)c2cccc(NS(=O)(=O)c3ccccc3)c2)cc1F | Potassium voltage-gated channel subfamily KQT member 1 (Homo sapiens) | potentiation | inactive
COc1ccc(NC(=S)NC(=O)c2ccc(Br)o2)cc1 | Potassium voltage-gated channel subfamily KQT member 1 (Homo sapiens) | potentiation | 45.5% (active)
O=C(NC(=S)N1CCN(c2ccccc2)CC1)c1c(F)cccc1F | Potassium voltage-gated channel subfamily KQT member 1 (Homo sapiens) | potentiation | inactive
Cc1[nH]c(=S)sc1Cc1ccc(F)cc1 | Potassium voltage-gated channel subfamily KQT member 1 (Homo sapiens) | potentiation | 101% (active)
Nc1nc(COc2ccccc2C=O)nc(Nc2ccccc2)n1 | Potassium voltage-gated channel subfamily KQT member 1 (Homo sapiens) | potentiation | inactive
COc1ccc(CCC(=O)NCCOc2ccc(C)cc2)cc1 | Potassium voltage-gated channel subfamily KQT member 1 (Homo sapiens) | potentiation | inactive
Nc1ccccc1OCCOCCOc1ccccc1N | Potassium voltage-gated channel subfamily KQT member 1 (Homo sapiens) | potentiation | inactive
COc1ccc(-c2nnc(NC(=O)c3ccc(S(=O)(=O)N4CCCc5ccccc54)cc3)o2)cc1 | Potassium voltage-gated channel subfamily KQT member 1 (Homo sapiens) | potentiation | inactive
CCOc1ccccc1NC(=S)NC(=O)c1ccco1 | Potassium voltage-gated channel subfamily KQT member 1 (Homo sapiens) | potentiation | 35% (active)
Cc1cc(C(=O)N2CCCC(N3CCN(c4cccc(Cl)c4)CC3)C2)n(C)n1 (stereo unspecified) | Potassium voltage-gated channel subfamily KQT member 1 (Homo sapiens) | potentiation | inactive
COc1ccc(NC(=S)NC(=O)c2csnn2)cc1 | Potassium voltage-gated channel subfamily KQT member 1 (Homo sapiens) | potentiation | 71% (active)
Cc1c(N2C(=O)/C(=C\c3ccccc3O)SC2=S)c(=O)n(-c2ccccc2)n1C | Potassium voltage-gated channel subfamily KQT member 1 (Homo sapiens) | potentiation | 200% (active)
O=C(Nc1nnc(-c2ccc(Cl)cc2)o1)c1ccccc1Br | Potassium voltage-gated channel subfamily KQT member 1 (Homo sapiens) | potentiation | 86.5% (active)
Cc1ccc(C2C(/C=C3/SC(=S)NC3=O)=C(c3cccs3)Oc3ccccc32)cc1 (stereo unspecified) | Potassium voltage-gated channel subfamily KQT member 1 (Homo sapiens) | potentiation | 33% (active)
CCOC(=O)c1c(NC(=S)NCCc2ccccc2)sc2c1CC(C(C)C)OC2 (stereo unspecified) | Potassium voltage-gated channel subfamily KQT member 1 (Homo sapiens) | potentiation | 32% (active)
CC1CCCCC1NC(=S)NC(=O)c1sc2ccccc2c1Cl (stereo unspecified) | Potassium voltage-gated channel subfamily KQT member 1 (Homo sapiens) | potentiation | 54% (active)
COc1ccc(CCNC(=O)CC(=O)N/N=C/c2ccc(Br)cc2)cc1OC | Potassium voltage-gated channel subfamily KQT member 1 (Homo sapiens) | potentiation | inactive
COc1ccc(CC(=O)c2ccccc2C(=O)O)cc1 | Potassium voltage-gated channel subfamily KQT member 1 (Homo sapiens) | potentiation | inactive
CCOC(=O)C1(CC2CCCCO2)CCN(Cc2cc3ccccc3[nH]2)CC1 (stereo unspecified) | Potassium voltage-gated channel subfamily KQT member 1 (Homo sapiens) | potentiation | inactive
Cc1ccc(C(=O)N/C(=C\c2ccc(-c3ccccc3[N+](=O)[O-])o2)C(=O)NCCCN2CCOCC2)cc1 | Potassium voltage-gated channel subfamily KQT member 1 (Homo sapiens) | potentiation | inactive
Cc1ccccc1C(=O)NCc1ccncc1 | Potassium voltage-gated channel subfamily KQT member 1 (Homo sapiens) | potentiation | inactive
C/C(=N\Nc1nc(C)c(C)s1)c1ccc([N+](=O)[O-])cc1 | Potassium voltage-gated channel subfamily KQT member 1 (Homo sapiens) | potentiation | 43% (active)
COCC(=O)NC1CC2CCC(C1)N2C(=S)Nc1ccccc1C(=O)OC (stereo unspecified) | Potassium voltage-gated channel subfamily KQT member 1 (Homo sapiens) | potentiation | inactive
C[C@@H](NC(=O)[C@@H]1Cc2ccccc2CN1)C(=O)NC1CCCC1 | Potassium voltage-gated channel subfamily KQT member 1 (Homo sapiens) | potentiation | inactive
CC(C)(C)NC(=O)C(=O)NNC(=O)C12CC3CC(CC(C3)C1)C2 | Potassium voltage-gated channel subfamily KQT member 1 (Homo sapiens) | potentiation | 40% (active)
